Reference source for all entries: ChEMBL document CHEMBL5532743

assay: Stability in human plasma assessed drug recovery measured at 120 mins by RP-HPLC analysis; format: ADME, cell-free; conditions: read-out: Drug recovery
Non-standard residues stand in square brackets, D forms with d. Residues, ends and D or L forms follow the SMILES beside them. *: point of attachment. NMeW = CN[C@@H](Cc1c[nH]c2ccccc12)C(=O)O; Acetyl(2-thienyl) = O=C(Cc1cccs1)*; αMeF = C[C@](N)(Cc1ccccc1)C(=O)O
measure: remaining at 2 h (%)
Numbers only, in %.

Inquiry: Give its remaining at 2 h value. Item: CN(C(=O)Cc1cccs1)[C@@H](Cc1c[nH]c2ccccc12)C(=O)N[C@@](C)(Cc1ccccc1)C(=O)N[C@@H](CCCNC(=N)N)C(=O)N1CCC[C@H]1C(=O)N[C@@H](CCCNC(=N)N)C(N)=O ({Acetyl(2-thienyl)}-[NMeW][αMeF]RPR-NH2)
Reply text: 96.7
